biological target: T1, RSV prefusion F (preF), subtype B (respiratory syncytial virus subtype B); test: BLI, IgG
T1 construct: also called Prefusion subtype B
metric: Kd (nM)
State just the number; it will be interpreted in nM.

| binder | Kd / nM |
| --- | --- |
| ADI-14344 (antibody, V domains shown, full-length IgG; also called Ab 12) VH: QVQLVQSGGGLVQPGGSLRLSCAASGFTFRTYALSWVRQAPGKGLEWVSSILGSGGSTYYADSVKGRFTISRDNSKNTLYLQLNSLRAEDTAVYFCAKLAVAGLLHHYYGLDVWGQGTTVTVSS VL: SYELTQPPSVSVSPGQTASITCSGDKLENKYACWYQQKPGQSPVLLIYQDTKRPSGIPERFSGSNSGTTATLTISGTQALDEADYYCQAWDSSTASVLFGGGTQLTVL | 0.586 |

Incoming: Value lookup for Kd; key = ADI-25478 (antibody, V domains shown, full-length IgG) VH: EVQLLESGGGLVKPGGSLRLSCAASGFTFSSYSMNWVRQAPGKGLEWVSSISSSSSYIYYADSVKGRFTISRDNAKNSLYLQMNSLRAEDTAVYYCARLDYSNYYYYMDVWGKGTTVTVSS VL: QPVLTQPPSVSGAPGQRVTISCTGSSSNIGAGYDVHWYQQLPGTAPKLLIYGNSNRPSGVPDRFSGSKSGTSASLAITGLQAEDEADYYCQSYDSSLSGYVFGTGTKLTVL
Outgoing: 6.43
